// values below are reported Ki
# Target Desc: human EP4 receptor (Homo sapiens)
# Construct: expressed in transfected cells; host or cells: HEK-EP4 cell line; membranes prepared in house
# Sequence (P35408 whole entry): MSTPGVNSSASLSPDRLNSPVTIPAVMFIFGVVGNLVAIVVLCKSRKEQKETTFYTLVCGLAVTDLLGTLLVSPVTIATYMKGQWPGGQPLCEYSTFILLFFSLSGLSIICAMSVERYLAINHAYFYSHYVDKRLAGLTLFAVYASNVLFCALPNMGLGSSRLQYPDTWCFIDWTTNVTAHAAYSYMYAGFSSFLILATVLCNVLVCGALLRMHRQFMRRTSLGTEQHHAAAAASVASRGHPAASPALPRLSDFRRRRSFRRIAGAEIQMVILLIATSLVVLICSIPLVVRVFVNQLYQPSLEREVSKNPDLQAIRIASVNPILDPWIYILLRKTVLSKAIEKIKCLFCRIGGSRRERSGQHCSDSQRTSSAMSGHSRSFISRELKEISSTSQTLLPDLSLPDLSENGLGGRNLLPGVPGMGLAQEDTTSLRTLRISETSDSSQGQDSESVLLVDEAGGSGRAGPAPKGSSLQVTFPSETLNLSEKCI
# Test Description: Competition binding in human EP4 receptor
# Measurement Conditions: [3H]-Prostaglandin E2 competition, membranes from HEK-EP4 cell line

Below, 5 compounds whose answers are already recorded.
Chem Smiles	Reported Property	Recorded Result
C[C@@H](NC(=O)c1cc(-c2cccc(C(F)(F)F)c2)ccc1Oc1ccc(F)cc1)c1ccc(C(=O)O)cc1	Ki	< 100 nM
O=C(O)c1ccc(CNC(=O)c2cc(-c3cccnc3)ccc2Oc2ccc(F)cc2)cc1	Ki	< 100 nM
N#Cc1cc(F)cc(-c2ccc(Oc3ccc(F)cc3)c(C(=O)NCc3ccc(C(=O)O)cc3)c2)c1	Ki	< 100 nM
O=C(O)c1ccc(CNC(=O)c2cc(-c3cccs3)ccc2Oc2ccc(F)cc2)cc1	Ki	< 100 nM
O=C(O)c1ccc(CNC(=O)c2cc(-c3ccc(F)c(F)c3)ccc2Oc2ccc(F)cc2)cc1	Ki	100 to 1000 nM

Field Ki (entry "O=C(O)c1ccc(CNC(=O)c2cc(-c3cc(F)cc(F)c3)ccc2Oc2ccc(F)cc2)cc1" ) reads < 100 nM

Field Ki (entry "O=C(O)c1ccc(CNC(=O)c2cc(-c3cccc(Cl)c3)ccc2Oc2ccc(F)cc2)cc1" ) reads < 100 nM

Field Ki (entry "O=C(O)c1ccc(CNC(=O)c2cc(-c3ccncc3Cl)ccc2Oc2ccc(F)cc2)cc1" ) reads 100 to 1000 nM

Field Ki (entry "O=C(O)c1ccc(CNC(=O)c2cc(-c3ccncc3F)ccc2Oc2ccc(F)cc2)cc1" ) reads < 100 nM

Field Ki (entry "N#Cc1cc(Cl)cc(-c2ccc(Oc3ccc(F)cc3)c(C(=O)NCc3ccc(C(=O)O)cc3)c2)c1" ) reads < 100 nM

Field Ki (entry "O=C(O)c1ccc(CNC(=O)c2cc(-c3cccc(F)c3)ccc2Oc2ccc(F)cc2)cc1" ) reads < 100 nM

###

A set of compounds tested on human EP4 receptor (Homo sapiens), with measured Ki:

Below, 2 compounds whose answers are already recorded.
Chem Smiles	Ki
O=C(O)c1ccc(C2(NC(=O)c3cc(-c4cccc(C(F)(F)F)c4)ccc3Oc3ccc(F)cc3)CC2)cc1	< 100 nM
NC(=O)c1ccc(-c2ccc(Oc3ccc(F)cc3)c(C(=O)NCc3ccc(C(=O)O)cc3)c2)o1	1000 to 10000 nM

Tested on human EP4 receptor (Homo sapiens), the item "O=C(O)c1ccc(CNC(=O)c2cc(-c3cccc(-c4ccncc4)c3)ccc2Oc2ccc(F)cc2)cc1" showed Ki equal to < 100 nM

Tested on human EP4 receptor (Homo sapiens), the item "O=C(O)c1ccc(CNC(=O)c2cc(-c3ccc(C(F)(F)F)cc3)ccc2Oc2ccc(F)cc2)cc1" showed Ki equal to 1000 to 10000 nM

###

# Target Desc: human EP2 receptor (Homo sapiens)
# Construct: purchased Millipore HTS185M
# Sequence (P43116 whole entry): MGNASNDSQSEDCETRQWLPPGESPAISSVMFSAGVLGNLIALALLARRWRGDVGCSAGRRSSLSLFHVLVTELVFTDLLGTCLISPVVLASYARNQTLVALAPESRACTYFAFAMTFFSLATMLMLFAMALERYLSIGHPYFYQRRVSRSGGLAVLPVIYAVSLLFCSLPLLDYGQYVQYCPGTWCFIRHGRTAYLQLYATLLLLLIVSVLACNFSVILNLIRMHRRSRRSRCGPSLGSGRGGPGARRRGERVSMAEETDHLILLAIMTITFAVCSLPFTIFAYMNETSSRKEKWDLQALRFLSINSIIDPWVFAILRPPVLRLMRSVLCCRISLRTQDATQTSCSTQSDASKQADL
# Test Description: Competition binding in human EP2 receptor
# Measurement Conditions: [3H]-Prostaglandin E2 competition, membranes from EP2 cell line
Reported Property: Ki

Below, 3 compounds whose answers are already recorded.
Chem Smiles	Ki
O=C(O)c1ccc(CNC(=O)c2cc(-c3ccc(F)c(F)c3)ccc2Oc2ccc(F)cc2)cc1	< 0.1 µM
O=C(O)c1ccc(CNC(=O)c2cc(-c3cccc(C(F)(F)F)c3)ccc2Oc2ccc(F)cc2)cc1	< 0.1 µM
N#Cc1ccc(-c2ccc(Oc3ccc(F)cc3)c(C(=O)NCc3ccc(C(=O)O)cc3)c2)cc1	1 to 10 µM

Note: attention shifts to another entry.
Tested on human EP2 receptor (Homo sapiens), the item "O=C(O)c1ccc(CNC(=O)c2cc(-c3ccncc3Cl)ccc2Oc2ccc(F)cc2)cc1" showed Ki equal to ≥ 10 µM
